Please respond with reported Activity for every item in the list.
Test: Induction of nitric oxide release in potassium phosphate buffer at pH 7.4 at 0.1 mM after 150 mins by Griess assay
Assay type: physicochemical
Conditions: pH 7.4, 2.5 h, 100 µM
Give bare numbers, in µM.

CCCCC(OC(=O)CN1CCN(CCCCCCOc2ccc(-c3cc(=S)ss3)cc2)CC1)c1ccccc1C(=O)Oc1ccc(/C=C/C(=O)OCCO[N+](=O)[O-])cc1OC (racemic)    7.28
CCCCC(OC(=O)CN1CCN(CCOc2ccc(-c3cc(=S)ss3)cc2)CC1)c1ccccc1C(=O)Oc1ccc(/C=C/C(=O)OCCCCCCO[N+](=O)[O-])cc1OC (racemic)    9.25
CCCCC(OC(=O)CN1CCN(CCCCCCOc2ccc(-c3cc(=S)ss3)cc2)CC1)c1ccccc1C(=O)Oc1ccc(/C=C/C(=O)OCCCCCCO[N+](=O)[O-])cc1OC (racemic)    10.12

// next entry
// field: Activity; key: CCCCC(OC(=O)CN1CCN(CCCCCCOc2ccc(-c3cc(=S)ss3)cc2)CC1)c1ccccc1C(=O)Oc1ccc(/C=C/C(=O)OCCCCO[N+](=O)[O-])cc1OC (racemic) ; value = 5.46
